# target_system: GlcNAc(a1-4)Gal(b1-4)GlcNAc(b1-3)Gal(b1-4)Glc
# experiment_notes: glycan array binding signal (z-score within array); higher = stronger binding
# particulars: glycan notation: IUPAC condensed, linker removed
The full list was thinned out, with the strongest signals kept by preference.
Decide using glycan array binding signal (z-score): a value greater than or equal to -0.08 is 1 (yes), a smaller one is 0 (no).

>  <binder>
Epa7 (Candida glabrata), Q6DTM6_CANGB (protein) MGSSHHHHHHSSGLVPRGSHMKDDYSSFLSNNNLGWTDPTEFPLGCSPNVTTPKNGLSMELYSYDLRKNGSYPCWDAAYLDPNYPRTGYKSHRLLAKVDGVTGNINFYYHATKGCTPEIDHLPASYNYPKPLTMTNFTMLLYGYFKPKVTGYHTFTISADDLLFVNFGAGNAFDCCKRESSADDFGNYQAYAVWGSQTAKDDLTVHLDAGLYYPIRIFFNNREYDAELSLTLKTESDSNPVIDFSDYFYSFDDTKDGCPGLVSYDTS

>  <discrete_label>
0 (no)

$$$$
>  <binder>
FimD (Bordetella pertussis) (protein) MPARVISFCGAALAVWAGLAVQPAMAVDPPVDCGRALGLHFWSSASLISDQTPDGTLIGKPVVGRSLLSKSCKVPDDIKEDLSDNHDGEPVDIVLELGSNYKIRPQSYGHPGIVVDLPFGSTEETGIAIYIDFGSSPMQKVGERQWLYPQKGEVLFDVLTINGDNAEVRYQAIKVGPLKRPRKLVLSQFPNLFTYKWVFMRGTSQERVLAQGTIDTDVATSTIDLKTCRYTSQTVSLPIIQRSALTGVGTTLGMTDFQMPFWCYGWPKVSVYMSATKTQTGVDGVALPATGQAAGMASGVGVQLINGKTQQPVKLGLQGKIALPEAQQTESATFSLPMKAQYYQTSTSTSAGKLSVTYAVTLNYD

>  <discrete_label>
1 (yes)

$$$$
>  <binder>
Mg1lysM (Mycosphaerella graminicola) (protein) QRNPITITPQFDCGATNSQQYVARSGDTLTKIAQEIYHDVVGVCDIARANNLADPNRIDAGTPYTIPINCQTYDRNSCL

>  <discrete_label>
0 (no)

$$$$
>  <binder>
PA-IL (Pseudomonas aeruginosa), Q05097 (protein) MAWKGEVLANNEAGQVTSIIYNPGDVITIVAAGWASYGPTQKWGPQGDREHPDQGLICHDAFCGALVMKIGNSGTIPVNTGLFRWVAPNNVQGAITLIYNDVPGTYGNNSGSFSVNIGKDQS

>  <discrete_label>
0 (no)

$$$$
>  <binder>
LecB PA14 (Pseudomonas aeruginosa) (protein) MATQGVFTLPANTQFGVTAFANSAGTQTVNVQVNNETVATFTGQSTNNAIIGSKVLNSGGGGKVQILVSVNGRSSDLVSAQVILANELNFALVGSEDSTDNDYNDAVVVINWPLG

>  <discrete_label>
0 (no)

$$$$
>  <binder>
AFCNVH (Aspergillus fumigatus) (protein) MSLRGFHTTCDTIVLKDKHILSSRCKRPDGTYSFSEIDLNDCLGNNNGKFVWGGESFVDSASQVNLALEGGEGRPMLHAQLNDWHGSVQSASVNLGECIQNEAGGLEYMHC

>  <discrete_label>
1 (yes)

$$$$
